All values here come from patent US20240190880A1.

- study-target: ER (Homo sapiens, UniProt P03372)
- Construct: host or cells: T47D and MCF7 human breast cancer cells
- procedure-summary: ER degradation activity, in-cell western blot analysis in T47D cells
- Assay type: cell-based
- test-context: 16 hours, Table A does not say which cell line (T47D or MCF7), read-out: Potency (DC50)
Listing: DC50 of selected molecules

molecule="C[C@@H]1Cc2c([nH]c3ccccc23)[C@@H](c2c(F)cc(-c3ccc(CN4CCC(N5Cc6cc7c(cc6C5)C(=O)N(C5CCC(=O)NC5=O)C7=O)CC4)nc3)cc2F)N1CC(F)F (stereo partly drawn) [E326]" reported_metric=DC50 reported_value="> 100 nM"
molecule="C[C@@H]1Cc2cc(O)ccc2[C@@H](c2c(F)cc(N3CCC4(CC3)CN(C(=O)CN3Cc5cc6c(cc5C3)C(=O)N(C3CCC(=O)NC3=O)C6)C4)cc2F)N1CC(F)F (stereo partly drawn) [E 35]" reported_metric=DC50 reported_value="< 10 nM"

Now consider a different molecule.
Data point: C[C@@H]1Cc2cc(O)ccc2[C@@H](c2c(F)cc(N3CC4(CCN(C(=O)CN5Cc6cc7c(cc6C5)C(=O)N(C5CCC(=O)NC5=O)C7=O)C4)C3)cc2F)N1CC(F)F (stereo partly drawn) [E 43] ; DC50 = < 10 nM
